# experiment-notes: Cytotoxicity assay in hTERT immortalized normal pancreatic cells
# Type: cell-based
# condition-context: human, HPNE cells (hTERT immortalized normal pancreatic cells), read-out: Cytotoxicity IC50 ± SD, HPNE Normal
attribute-measured: IC50 at 48 hr (µM)
Write the number in µM without appending the unit.

Recorded IC50 at 48 hr (compound COC(=O)C(CC(=O)Nc1ccc(C(=O)N2CCc3ccccc32)cc1)c1ccc(C(F)(F)F)cc1 (centres unmarked) [Compound 17] ): 50.7

Recorded IC50 at 48 hr (compound COC(=O)C(CC(=O)Nc1ccc(C(=O)c2nccn2C)cc1)c1ccc(C(F)(F)F)cc1 (centres unmarked) [Compound 4] ): 49.5

----------
compounds and their reported pIC50
# Tested on: PANC-1 cells
# experiment-notes: Cytotoxicity (viability/proliferation/necrosis) assay, PANC-1
# Format: cell-based
# condition-context: Homo sapiens; PANC-1, 48 hr, normoxic; read-out: Cytotoxicity IC50 ± SD, PANC-1
Scale explanation: pIC50 corresponds to minus log10 of a concentration expressed in moles per litre.

Below, each entry is followed by its recorded pIC50 result.
compound: COC(=O)C(CC(=O)Nc1ccc(C(=O)N2CCc3ccccc32)cc1)c1ccc(C(F)(F)F)cc1 (centres unmarked) [Compound 17]
target-or-system: PANC-1 cells
pIC50: 4.62

compound: COC(=O)C(CC(=O)Nc1ccc(F)cn1)c1ccc(C(F)(F)F)cc1 (centres unmarked) [Compound 23]
target-or-system: PANC-1 cells
pIC50: 4.65

compound: O=C(CC(C(=O)O)c1ccc(C(F)(F)F)cc1)Nc1ccc(C(=O)N2CCc3ccccc32)cc1 (centres unmarked) [Compound 19]
target-or-system: PANC-1 cells
pIC50: 4.37

compound: COC(=O)C(CC(=O)Nc1ccc(C(=O)c2nccn2C)cc1)c1ccc(C(F)(F)F)cc1 (centres unmarked) [Compound 4]
target-or-system: PANC-1 cells
pIC50: 4.62

Reading of pIC50 for Cn1ccnc1C(=O)c1ccc(NC(=O)CC(C(=O)O)c2ccc(C(F)(F)F)cc2)cc1 (centres unmarked) [Compound 5] with PANC-1 cells: 4.36

----------
# System: FC1199 pancreatic cancer cells
# experiment-notes: Cytotoxicity (viability/proliferation/necrosis) assay, FC1199
# Assay type: cell-based
# condition-context: Mus musculus, Pancreatic cancer cell; FC-1199, 48 hr; read-out: Cytotoxicity IC50 ± SD, FC-1199
molecules and their reported IC50
Mention the unit after the number when you answer.

molecule: COC(=O)C(CC(=O)Nc1ccc(C(=O)c2nccn2C)cc1)c1ccc(C(F)(F)F)cc1 (centres unmarked) [Compound 4]
target-or-system: FC1199 pancreatic cancer cells
IC50: 12.1 µM
--
molecule: COC(=O)C(CC(=O)Nc1ccc(C(=O)N2CCc3ccccc32)cc1)c1ccc(C(F)(F)F)cc1 (centres unmarked) [Compound 17]
target-or-system: FC1199 pancreatic cancer cells
IC50: 73.4 µM
--
molecule: O=C(CC(C(=O)O)c1ccc(C(F)(F)F)cc1)Nc1ccc(C(=O)N2CCc3ccccc32)cc1 (centres unmarked) [Compound 19]
target-or-system: FC1199 pancreatic cancer cells
IC50: 56.5 µM
--
molecule: COC(=O)C(CC(=O)Nc1ccc(F)cn1)c1ccc(C(F)(F)F)cc1 (centres unmarked) [Compound 23]
target-or-system: FC1199 pancreatic cancer cells
IC50: 13.3 µM

Recorded IC50 (molecule Cn1ccnc1C(=O)c1ccc(NC(=O)CC(C(=O)O)c2ccc(C(F)(F)F)cc2)cc1 (centres unmarked) [Compound 5] ): 20.8 µM

----------
# experiment-notes: Cytotoxicity assay in hTERT immortalized normal pancreatic cells
# Assay type: cell-based
# condition-context: human, HPNE cells (hTERT immortalized normal pancreatic cells), read-out: Cytotoxicity IC50 ± SD, HPNE Normal
attribute-measured: IC50 at 48 hr

Below, each entry is followed by its recorded IC50 at 48 hr result.
compound: COC(=O)C(CC(=O)Nc1ccc(F)cn1)c1ccc(C(F)(F)F)cc1 (stereo not drawn) [Compound 23]
attribute-measured: IC50 at 48 hr
result: > 50 µM
//
compound: Cn1ccnc1C(=O)c1ccc(NC(=O)CC(C(=O)O)c2ccc(C(F)(F)F)cc2)cc1 (stereo not drawn) [Compound 5]
attribute-measured: IC50 at 48 hr
result: > 50 µM

// next item, IC50 at 48 hr requested
Recorded IC50 at 48 hr (compound O=C(CC(C(=O)O)c1ccc(C(F)(F)F)cc1)Nc1ccc(C(=O)N2CCc3ccccc32)cc1 (stereo not drawn) [Compound 19] ): > 50 µM

The measurements presented in this section are drawn from patent US20240189276A1.
